Here, each record is paired with measured phosphorylation enrichment data.
# targetEntity: Fyn (UniProt P06241)
# Sequence (P06241 whole entry, looked up): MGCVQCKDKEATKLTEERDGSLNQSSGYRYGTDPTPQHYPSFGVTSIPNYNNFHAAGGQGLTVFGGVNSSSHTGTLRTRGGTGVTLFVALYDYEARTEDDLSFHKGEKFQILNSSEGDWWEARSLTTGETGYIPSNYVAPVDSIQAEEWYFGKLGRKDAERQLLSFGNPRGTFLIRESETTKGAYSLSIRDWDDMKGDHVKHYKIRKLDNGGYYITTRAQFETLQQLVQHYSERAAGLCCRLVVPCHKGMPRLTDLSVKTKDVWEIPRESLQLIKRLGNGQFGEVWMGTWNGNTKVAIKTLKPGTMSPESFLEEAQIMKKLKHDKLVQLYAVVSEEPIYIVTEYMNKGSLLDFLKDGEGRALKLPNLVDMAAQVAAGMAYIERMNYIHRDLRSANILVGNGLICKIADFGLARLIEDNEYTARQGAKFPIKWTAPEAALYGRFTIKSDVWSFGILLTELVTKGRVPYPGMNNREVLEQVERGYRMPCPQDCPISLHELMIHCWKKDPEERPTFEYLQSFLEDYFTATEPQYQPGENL
# measurementNotes: phosphorylation enrichment, bacterial display (enrichment ratio); higher = better substrate or ligand; peptides without Tyr show the background;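 further: 11-residue human phosphosite peptides and single-mutation variants displayed on the E. coli surface, counted by deep sequencing, each peptide's frequency after selection divided by its frequency in the unselected input library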;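 further: frequency after pTyr selection over input frequency; kinase dosed for 20-30% of maximal phosphorylation in three min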
Answer with a number only.

Consider the following illustrative entries.
SHGKQYRVPSD [HHIPL2_Y395_R394Q] : 0.34
QMVDMYASSYM [AVPR2_Y124_G122D] : 0.876
RDMMDYMPQGV [CYP21A2_Y259_L261P] : 0.636
LQTYRYHGLSM [PDHA1_Y289_H292L] : 0.703
VERRVYAEDPY [PCCA_Y401_C398R] : 0.764

Fill in reported phosphorylation enrichment for this entry: KIVYVYVKKRS [DNAI2_Y7_E2K] 0.515

Find the measured phosphorylation enrichment of REEKNYKLKET [BCLAF1_Y459] and report it. 0.843

Answer with reported phosphorylation enrichment of TNFCLYLRSLE [MTM1_Y71_R69C_YF] 0.594

Consider the sequence DPADRYLTEQF [CDKL5_Y286_C291Y_YF] and give its recorded phosphorylation enrichment. 0.527

Look up phosphorylation enrichment of QTLEAYIRCNK [SPAST_Y604_W607C] and report it. 0.438
